# ASSAY_DETAILS: qHTS for differential inhibitors of proliferation of Plasmodium falciparum line 7G8 (AID 1815);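 note: parasite growth measured after three days of incubation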
# DETAILS: Plasmodium falciparum 7G8 proliferation inhibition; series mostly up to 28.7 µM
Results filed as inconclusive are left out. Active and inactive are the calls of the source. Calls come from the whole dose curve; as a rule, active = well fitted curve in the direction sought with a large enough effect; inconclusive = small, poorly fitted or top-dose-only effect, or another doubt; inactive = no such curve, though single readings can be large or run the other way.
Possible outcomes: active, inactive

>>> category("CN1CC[C@@]2(C)c3cc(O)ccc3N(C)C12 (stereo partly specified)")
"active"
>>> category("O=C(O)c1cc[c]([Hg][Cl])cc1")
"active"
>>> category("COc1ccc2[nH]c3c(c2c1)CCNC3")
"inactive"
>>> category("CN(N=O)c1ccc(O)c(O)c1")
"inactive"
>>> category("c1ccc2c(N3CCNCC3)cccc2c1")
"active"
>>> category("N[C@@H](CCl)C(=O)O")
"inactive"
>>> category("COc1ccc2c(c1)/C(=C/c1cnc[nH]1)C(=O)N2")
"active"
>>> category("C[C@H](N)CN1CCc2ccc(Br)cc21")
"active"
>>> category("Clc1ccc(N2CC3CCC(C2)N3)nn1")
"inactive"
>>> category("CNC(=O)OCC[N+](C)(C)C")
"inactive"
>>> category("CCn1cnc2c(Nc3cccc(Cl)c3)nc(N[C@@H]3CCCC[C@@H]3N)nc21")
"active"
>>> category("NC(=O)COc1c(F)cc(SCCNS(=O)(=O)c2ccccc2)cc1F")
"inactive"
>>> category("CCS(=O)(=O)Nc1cccc(C(=C2CCCCC2)c2cnc[nH]2)c1")
"active"
>>> category("CCCn1c(C)c(C(=O)c2ccc3ccccc3c2)c2ccccc21")
"active"
>>> category("CO[C@H]1CC=C2CCN3CCC4=C(CC(=O)OC4)[C@]23C1")
"inactive"
>>> category("COC(=O)N1CCN(C(=O)Cc2ccc(Cl)c(Cl)c2)C(CN2CCCC2)C1 (stereo unspecified)")
"active"
>>> category("NC(=O)CI")
"inactive"
>>> category("C[C@]12Cc3cn4c(nc3C=C1CCC1C2CC[C@@]2(C)[C@H]1CC[C@@]2(O)C#N)nc1ccccc14 (stereo partly specified)")
"active"
>>> category("NC(Cc1ccc(N(CCCl)CCCl)cc1)C(=O)O (stereo unspecified)")
"active"
>>> category("CC(=O)c1c(O)c(C)c(O)c(Cc2c(O)c3c(c(C(=O)/C=C/c4ccccc4)c2O)OC(C)(C)C=C3)c1O")
"active"
>>> category("NCCc1c[nH]c2ccc(C(N)=O)cc12")
"inactive"
